target: β-tubulin (Homo sapiens, UniProt P07437+P68363); construct: […]; assay: Tubulin polymerization inhibition assay (Human Beta-tubulin ELISA kit); settings: β-tubulin ELISA
Sequence (P07437 whole entry): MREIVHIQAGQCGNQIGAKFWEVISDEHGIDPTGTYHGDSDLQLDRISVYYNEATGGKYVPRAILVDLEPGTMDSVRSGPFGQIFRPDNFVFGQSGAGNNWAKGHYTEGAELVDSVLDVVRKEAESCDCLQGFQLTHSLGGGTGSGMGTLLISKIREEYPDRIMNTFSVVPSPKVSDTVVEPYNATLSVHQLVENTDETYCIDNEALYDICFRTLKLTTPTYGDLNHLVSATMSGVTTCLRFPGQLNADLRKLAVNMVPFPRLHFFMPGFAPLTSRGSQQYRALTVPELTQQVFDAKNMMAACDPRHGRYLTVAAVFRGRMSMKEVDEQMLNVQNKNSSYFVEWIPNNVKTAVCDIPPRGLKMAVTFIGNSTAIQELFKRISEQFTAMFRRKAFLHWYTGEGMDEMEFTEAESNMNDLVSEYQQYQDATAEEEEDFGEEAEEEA
Sequence (P68363 whole entry): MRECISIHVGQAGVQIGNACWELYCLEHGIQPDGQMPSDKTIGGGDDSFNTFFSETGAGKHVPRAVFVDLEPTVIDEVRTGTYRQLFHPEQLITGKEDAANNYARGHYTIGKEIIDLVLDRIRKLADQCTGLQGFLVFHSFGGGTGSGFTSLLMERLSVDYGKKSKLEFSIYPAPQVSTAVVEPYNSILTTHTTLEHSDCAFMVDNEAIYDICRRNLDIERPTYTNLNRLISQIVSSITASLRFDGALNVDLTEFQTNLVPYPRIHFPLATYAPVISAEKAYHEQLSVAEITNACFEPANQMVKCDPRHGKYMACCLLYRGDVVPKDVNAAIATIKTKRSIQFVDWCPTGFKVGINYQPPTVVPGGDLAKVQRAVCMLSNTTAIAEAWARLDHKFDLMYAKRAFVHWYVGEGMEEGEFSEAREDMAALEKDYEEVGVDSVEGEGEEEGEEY
OBSERVABLE: pIC50
Scale note: pIC50 = -log10(concentration in M).

Problem: pIC50 of COc1cc(C(=O)NC(=Cc2ccc(Cl)cc2)C(=O)NNC(=O)/C(=C/c2ccco2)NC(=O)c2cc(OC)c(OC)c(OC)c2)cc(OC)c1OC [Compound 6a] on β-tubulin (Homo sapiens, UniProt P07437+P68363)?
Result: 6.57

* * *

Assignment: determine reported melting point for the given compounds.

Problem: Looking for the measured melting point of COc1cc(C(=O)NC(=Cc2ccco2)C(=O)Nc2ccc3ccccc3c2)cc(OC)c1OC (hydrate or solvate) , can you help?
Result: 270 to 272 °C

Problem: I am curious: what melting point value has been reported for COc1cc(C(=O)NC(=Cc2ccco2)C(=O)NNC(=O)c2ccc(NC(=O)c3cccnc3)cc2)cc(OC)c1OC ?
Result: 217 to 219 °C

Problem: Record request: melting point value, item COc1cc(C(=O)NC(=Cc2ccco2)C(=O)NNC(=O)c2ccncc2)cc(OC)c1OC
Result: 228 to 230 °C

Problem: Please look up its melting point: COc1cc(C(=O)NC(=Cc2ccc(Cl)cc2)C(=O)NNC(=O)/C(=C/c2ccco2)NC(=O)c2cc(OC)c(OC)c(OC)c2)cc(OC)c1OC
Result: 209 to 211 °C

* * *

Can you tell me pIC50 for the items I'm about to list?
test system: HL-7702 cells; assay: MTT cytotoxicity assay against normal liver cell line HL-7702; type: cell-based, human; conditions: Homo sapiens, L02; MTT assay, normal liver cell line HL-7702, mean of three independent replicates ± SE
For clarity, pIC50 is expressed as the negative log10 of concentration in mol/L.

Problem: May I ask what pIC50 has been recorded for COc1cc(C(=O)NC(=Cc2ccc(N(C)C)cc2)C(=O)NNC(=O)/C(=C/c2ccco2)NC(=O)c2cc(OC)c(OC)c(OC)c2)cc(OC)c1OC ?
Result: 5.01

Problem: Could you share which pIC50 value was measured for COc1ccc(/C=C\c2cc(OC)c(OC)c(OC)c2)cc1O [CA-4, combretastatin A-4, reference compound] ?
Result: 5.05

Problem: Can you look up the measured pIC50 of COc1cc(C(=O)NC(=Cc2ccc(Cl)cc2)C(=O)NNC(=O)/C(=C/c2ccco2)NC(=O)c2cc(OC)c(OC)c(OC)c2)cc(OC)c1OC for me?
Result: 5.02

Problem: Using the record for COc1cc(C(=O)NC(=Cc2ccc(C#N)cc2)C(=O)NNC(=O)/C(=C/c2ccco2)NC(=O)c2cc(OC)c(OC)c(OC)c2)cc(OC)c1OC , report its pIC50.
Result: 4.96

* * *

OBSERVABLE: melting point

Problem: Bench note: what melting point did COc1cc(C(=O)NC(=Cc2ccc(C#N)cc2)C(=O)NNC(=O)/C(=C/c2ccco2)NC(=O)c2cc(OC)c(OC)c(OC)c2)cc(OC)c1OC [Compound 6b] show?
Result: 223 to 225 °C

Problem: Give its melting point value. Item: COc1ccc(C=C(NC(=O)c2cc(OC)c(OC)c(OC)c2)C(=O)NNC(=O)/C(=C/c2ccco2)NC(=O)c2cc(OC)c(OC)c(OC)c2)cc1 [Compound 6d]
Result: 206 to 208 °C

Problem: What value of measured melting point is listed for COc1cc(C(=O)NC(=Cc2ccc(N(C)C)cc2)C(=O)NNC(=O)/C(=C/c2ccco2)NC(=O)c2cc(OC)c(OC)c(OC)c2)cc(OC)c1OC [Compound 6c] ?
Result: 215 to 217 °C

Problem: I am curious: what melting point value has been reported for COc1cc(C(=O)NC(=Cc2ccco2)C(=O)Nc2ccc(Cl)cc2)cc(OC)c1OC [Compound 2b] ?
Result: 241 to 243 °C

Problem: Reported melting point for COc1cc(C(=O)NC(=Cc2ccco2)C(=O)Nc2ccc(C)cc2)cc(OC)c1OC [Compound 2c] : what is it?
Result: 261 to 263 °C

Problem: # query: melting point of entry COc1cc(C(=O)NC(=Cc2ccco2)C(=O)NNC(=O)c2cccc(O)c2)cc(OC)c1OC [Compound 4a]
Result: 235 to 237 °C

Problem: Fill blank: measured melting point of the compound COc1cc(C=C(NC(=O)c2cc(OC)c(OC)c(OC)c2)C(=O)NNC(=O)/C(=C/c2ccco2)NC(=O)c2cc(OC)c(OC)c(OC)c2)cc(OC)c1OC [Compound 6e] is ____.
Result: 212 to 214 °C

Problem: // melting point lookup, key: COc1cc(C(=O)NC(=Cc2ccco2)C(=O)Nc2cccc(Cl)c2)cc(OC)c1OC [Compound 2a]
Result: 248 to 250 °C
